Entry source: the supplement of paper PMC10567573

So I've got a bunch of sequences here, and I need their protein stability index values.
TEST METHOD NOTES: protein stability index of a GFP-peptide fusion (GPS, HEK-293T) (PSI 1-6); higher = more stable;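 note: 24-mer peptide tiles fused after GFP, lentivirally expressed, FACS-sorted into six equal bins by GFP/DsRed ratio, decoded by Illumina sequencing, PSI is the read-weighted mean bin number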
TEST CONDITIONS: treatment: DMSO; c terminus: a fixed tail appended
Could you keep your reply to the number by itself?

Documented protein stability index of MVHINRALKLIIRLFLVEDLVDSL [RTN3] : 2.88

Documented protein stability index of LEEDLYELFKKDPGFDRGQFHKQI [PI4K2A] : 3.56

Documented protein stability index of SEDNTSFDRKKKSISLMYGGSKRK [SLA] : 4.66

Documented protein stability index of FTKANFWYQPSFHGVDLSALRGAA [CARM1] : 2.38

Documented protein stability index of TNNNIKQRLIKKVQEAVLDKWVND [GOLPH3] : 2.37

Documented protein stability index of CFVLFSLTHTHTHTPNHRGINCFF [ANKRD44] : 2.66

Documented protein stability index of ELLTLVNRKVSQRRVDFCKDPSAI [CASP6] : 2.22

Documented protein stability index of RIGEATKPDGTVEQIGHILVSWLP [NET1] : 2.68

Documented protein stability index of QEMVQRPQPHRNRAGLDLPTIDTG [TRAF3IP2] : 4.5

Documented protein stability index of FGNRIKVLRSRIRFIHLVTGCVLG [POMT2] : 2.57

Documented protein stability index of EPAGSLRELGVWRSLLRLRATRAG [C2CD2L] : 2.88

Documented protein stability index of AALLQLVRRLQALRLEREEYVLLK [ESRRA] : 2.19

Documented protein stability index of TSDDNLLKNIELFDKLALRFHGRL [KCTD13] : 2.48

---

TEST METHOD NOTES: protein stability index of a GFP-peptide fusion (GPS, HEK-293T) (PSI 1-6); higher = more stable
TEST CONDITIONS: treatment: DMSO; c terminus: a fixed tail appended
TEST READOUT: protein stability index

Documented protein stability index of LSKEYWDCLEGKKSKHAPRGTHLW [ELF3] : 2.82

Documented protein stability index of QSMSEEEREKVTPLMVKGFRDAAE [SEPHS2] : 5.01

Documented protein stability index of LEAHCVEFLTKHLRADNAFMLLTQ [BTBD1] : 2.55

Documented protein stability index of CYRSQDYGGRSVAPQNSFSAKLAP [KCNK9] : 3.04

Documented protein stability index of NNMNAVNLFFAWIKIFKYISFNKT [PKD2L1] : 2.81

Documented protein stability index of SFNHNAHLTVHKRIHTGERPYMCK [ZNF8] : 2.76

Documented protein stability index of ENQRENLEQPFLSVFKKGRRRVPV [PLEKHN1] : 3.31

---

TEST METHOD NOTES: protein stability index of a GFP-peptide fusion (GPS, HEK-293T) (PSI 1-6); higher = more stable
TEST CONDITIONS: treatment: DMSO; c terminus: a fixed tail appended
TEST READOUT: protein stability index
Could you keep your reply to the number by itself?

Documented protein stability index of PSGHSDAQTLAMMLQEQLDAINEE [PPFIA4] : 4.94

Documented protein stability index of FVQDVLFVLQAIGIPGWGFSGWIS [SCAMP3] : 3.33

Documented protein stability index of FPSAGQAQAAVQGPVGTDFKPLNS [ZNF207] : 3.67

Documented protein stability index of PRTSEAQARKALFEKWEQETAAGK [SMTNL2] : 5.1

Documented protein stability index of TAHLYSLLQTQHALGDAFADLSQK [ARFIP2] : 2.18

Documented protein stability index of FIEALIQQYQEQLDKSTKLVETAI [TRIM63] : 2.66

Documented protein stability index of LTCALMLLNTDLHGHNIGKKMSCQ [PSD2] : 2.54

Documented protein stability index of LYLNLALHLASDFFLKHPDKDVRL [PDS5B] : 2.73

Documented protein stability index of QLLYSPIENIQRVAAGVLCELAQD [CTNNB1] : 2.29

Documented protein stability index of GSESYKSSAGSAEQTAPGDSTGYM [EHMT1] : 5.16

Documented protein stability index of KAPKKDVIKMLVNDNKVLRYLAVL [EFHC1] : 2.65

Documented protein stability index of ADVTLDPETAHPNLVLSEDRKSVK [TRIM39] : 5.38

Documented protein stability index of GQKLVVPGLLGSMALSNHYRSEDL [FBXO3] : 2.92
